- SUBJECT OF TEST: Fibroblast growth factor receptor 2 (Homo sapiens) (UniProt P21802)
- Sequence (P21802 22-821 limits assumed): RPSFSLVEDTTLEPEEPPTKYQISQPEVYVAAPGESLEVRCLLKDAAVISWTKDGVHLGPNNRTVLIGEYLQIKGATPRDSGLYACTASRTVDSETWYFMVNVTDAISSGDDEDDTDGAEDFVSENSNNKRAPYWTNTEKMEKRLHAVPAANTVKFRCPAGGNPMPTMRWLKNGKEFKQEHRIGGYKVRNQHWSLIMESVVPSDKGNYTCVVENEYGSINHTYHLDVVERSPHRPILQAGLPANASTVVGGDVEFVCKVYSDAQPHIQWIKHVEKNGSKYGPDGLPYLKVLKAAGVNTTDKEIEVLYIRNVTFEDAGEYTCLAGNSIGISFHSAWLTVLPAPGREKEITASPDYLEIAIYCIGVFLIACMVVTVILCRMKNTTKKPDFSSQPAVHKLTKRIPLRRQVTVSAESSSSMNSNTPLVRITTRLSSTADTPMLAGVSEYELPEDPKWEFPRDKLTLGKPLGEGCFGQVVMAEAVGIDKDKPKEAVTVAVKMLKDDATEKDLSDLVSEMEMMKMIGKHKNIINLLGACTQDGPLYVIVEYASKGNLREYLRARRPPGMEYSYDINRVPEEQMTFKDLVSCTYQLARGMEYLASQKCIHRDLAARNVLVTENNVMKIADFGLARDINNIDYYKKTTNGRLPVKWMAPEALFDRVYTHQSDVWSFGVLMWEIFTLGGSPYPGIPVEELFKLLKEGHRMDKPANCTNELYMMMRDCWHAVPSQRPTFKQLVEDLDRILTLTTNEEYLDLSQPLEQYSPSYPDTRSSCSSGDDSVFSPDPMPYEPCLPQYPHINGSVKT
- CONDITION SUMMARY: at 1 µM
VALUE KIND: inhibition (%)
Give bare numbers, in %.

STRUCTURE NOTATION	SUBJECT OF TEST	inhibition [%]
COc1cccc(-n2ncc3c(N/N=C/c4ccncc4)ncnc32)c1	Fibroblast growth factor receptor 2 (Homo sapiens) (UniProt P21802)	14.5
NS(=O)(=O)c1ccc(N/C=C2\C(=O)Nc3ccc4ncsc4c32)cc1	Fibroblast growth factor receptor 2 (Homo sapiens) (UniProt P21802)	53.3
CCn1c(-c2nonc2N)nc2c(C#CC(C)(C)O)ncc(OCC3CCNCC3)c21	Fibroblast growth factor receptor 2 (Homo sapiens) (UniProt P21802)	3.89

Need inhibition for each of these molecules.
1. NS(=O)(=O)c1ccc(-c2ccc3c(NC(=O)C4CC4)n[nH]c3c2)cc1
2. COc1cc(C=NNc2ncnc3c2cnn3Cc2ccccc2)ccc1O
3. Nc1nonc1-c1nc2cnccc2n1C1CCCCC1
4. CCn1c(-c2nonc2N)nc2c(C#CC(C)(C)O)ncc(OC[C@@H]3CCCN3)c21
5. CCn1c(-c2nonc2N)nc2c(C#CC(C)(C)O)nc(O[C@@H](CN)c3ccccc3)cc21

A)
[6, -2.01, -0.47, 0.8, 1.12]

====

Provide the reported inhibition of each item.
- SUBJECT OF TEST: Cyclin-dependent kinase 4 (Homo sapiens) (UniProt P11802)
- Sequence (P11802 whole entry): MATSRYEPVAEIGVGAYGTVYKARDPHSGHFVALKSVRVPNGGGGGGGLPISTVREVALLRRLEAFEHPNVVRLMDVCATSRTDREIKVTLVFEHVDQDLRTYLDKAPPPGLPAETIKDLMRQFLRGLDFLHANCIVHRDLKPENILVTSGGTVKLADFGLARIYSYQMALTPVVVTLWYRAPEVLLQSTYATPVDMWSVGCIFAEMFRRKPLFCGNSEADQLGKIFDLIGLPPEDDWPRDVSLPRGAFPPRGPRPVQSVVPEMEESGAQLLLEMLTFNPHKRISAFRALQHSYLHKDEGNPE
- CONDITION SUMMARY: at 1 µM
Answers are plain numbers, in %.

STRUCTURE NOTATION	VALUE KIND	MEAS VALUE
CCn1c(-c2nonc2N)nc2c(C#CC(C)(C)O)nc(O[C@@H](CN)c3ccccc3)cc21	inhibition	4.92
COc1cccc(-n2ncc3c(N/N=C/c4ccncc4)ncnc32)c1	inhibition	52.6
COc1cc(C=NNc2ncnc3c2cnn3Cc2ccccc2)ccc1O	inhibition	5.23

Need inhibition for each of these compounds.
1. COc1cccc(COc2cc(-n3cnc4ccccc43)sc2C(N)=O)c1
2. Fc1ccc(-c2ncn(C3CCNCC3)c2-c2ccnc(Oc3ccccc3)n2)cc1
3. NC(=O)c1sc(-n2cnc3cc(C(F)(F)F)ccc32)cc1OCc1ccccc1Br
4. COc1cc2c(cc1Nc1nc(Nc3ccsc3C(N)=O)c3cc[nH]c3n1)N(C(=O)CN(C)C)CCC2

A)
[1.36, -2.32, 2.92, 5.67]

====

Provide the reported inhibition of each item.
- SUBJECT OF TEST: RAC-alpha serine/threonine-protein kinase (Homo sapiens) (UniProt P31749)
- Sequence (P31749 whole entry): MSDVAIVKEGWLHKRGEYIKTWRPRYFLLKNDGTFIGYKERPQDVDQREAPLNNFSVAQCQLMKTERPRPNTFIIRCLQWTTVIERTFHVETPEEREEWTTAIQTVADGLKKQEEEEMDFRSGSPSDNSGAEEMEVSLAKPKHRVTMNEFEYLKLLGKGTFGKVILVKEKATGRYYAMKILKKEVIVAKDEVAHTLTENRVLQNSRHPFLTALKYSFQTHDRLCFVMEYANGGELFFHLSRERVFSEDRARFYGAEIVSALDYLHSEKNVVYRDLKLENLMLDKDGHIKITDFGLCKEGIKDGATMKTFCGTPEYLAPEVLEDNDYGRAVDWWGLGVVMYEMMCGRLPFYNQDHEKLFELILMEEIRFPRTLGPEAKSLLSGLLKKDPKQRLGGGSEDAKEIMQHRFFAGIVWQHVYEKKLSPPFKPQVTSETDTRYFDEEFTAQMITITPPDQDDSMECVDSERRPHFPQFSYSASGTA
- CONDITION SUMMARY: at 0.1 µM
Numbers only, in %.

Take a look at these entries with their results.
STRUCTURE NOTATION	inhibition [%]
Cc1cc(-c2ccco2)cc(C)c1/C=C/c1cncc(-c2nn[nH]n2)c1	-0.08
NC(=O)c1sc(-n2cnc3cc(C(F)(F)F)ccc32)cc1OCc1ccccc1Br	0.26
Nc1nonc1-c1nc2cnccc2n1C1CCCCC1	3.37

Need inhibition for each of these molecules.
1. CCn1c(-c2nonc2N)nc2c(C#CCN)ncc(OCCCN)c21
2. NS(=O)(=O)c1ccc(N/C=C2\C(=O)Nc3ccc4ncsc4c32)cc1
3. COc1cccc(COc2cc(-n3cnc4ccccc43)sc2C(N)=O)c1
4. COc1cccc(-n2ncc3c(N/N=C/c4ccncc4)ncnc32)c1

A)
1: -0.6; 2: 0.54; 3: 2.26; 4: 0.24

Cited source for all entries: ChEMBL document CHEMBL1961873
